For each record, write down the corresponding T/C.
- System: BDF1 mice, Lewis lung carcinoma iv, survival T/C
- method_notes: NCI In Vivo Anticancer Drug Screen. Data for tumor model Lewis Lung Carcinoma (intravenous) in B6D2F1 (BDF1) mice
- condition_info: endpoint: median survival time; dose: 50.0 mg/kg/injection; schedule: Q01DX009 (ip); vehicle: saline with Tween-80; higher = longer survival
Toxic doses and inconclusive results are not listed.

Worked cases, T/C given:
• C[C@H](CCC(=O)O)[C@H]1CC[C@H]2[C@@H]3[C@H](O)C[C@@H]4C[C@H](O)CC[C@]4(C)[C@H]3C[C@H](O)[C@]12C (tested in a mixture with another compound) = 109 % of control
• O=C1N(Cl)C(=O)C(c2ccc(Cl)cc2)(c2ccc(Cl)cc2)N1Cl = 103 % of control
• Nc1cc2c3c(cccc3c1)C(=O)N(CCN1CCCC1)C2=O = 113 % of control
• COc1cc(Cl)ccc1C = 97 % of control

Dear colleague, could you please provide T/C for the compounds listed below?
1. COc1ccc(C(Cn2ccnc2)Sc2ccc(Cl)c(Cl)c2)cc1 (stereo not given)
2. CC(C)n1cnc2c(Cl)ncnc21
3. ClC1(c2ccccc2)c2ccc(Br)cc2-c2cc(Br)ccc21

Result ::
100 % of control
95 % of control
105 % of control

Dear colleague, could you please provide T/C for the compounds listed below?
1. CCCCCCCCCCCCCCCC[N+]1(C)CCN(SN2CC[N+](C)(CCCCCCCCCCCCCCCC)CC2)CC1
2. OCC1OC(n2cnc3cc(Cl)c(Cl)cc32)C(O)C1O (stereo not given)

Result ::
1: 100 % of control; 2: 110 % of control

Query :: Tell us which T/C value is on record for COc1cc(C(C)(C)C)cc(OC)c1C(O)(c1c(OC)cc(C(C)(C)C)cc1OC)c1c(OC)cc(C(C)(C)C)cc1OC
Result :: 99 % of control

* * *

- System: BDF1 mice, Lewis lung carcinoma iv, survival T/C
- method_notes: NCI In Vivo Anticancer Drug Screen. Data for tumor model Lewis Lung Carcinoma (intravenous) in B6D2F1 (BDF1) mice
- condition_info: endpoint: median survival time; dose: 3.12 mg/kg/injection; schedule: Q01DX009 (ip); vehicle: water; higher = longer survival
- Description: The antitumor activity of compounds was measured in mice bearing transplantable tumors. Survival or tumor size were measured and the results are expressed as the measurement made in the treated group (T) divided by the measurement made in the vehicle treated control group (C). The tumor model used in this assay is Lewis Lung Carcinoma (intravenous) in B6D2F1 (BDF1) mice
Toxic doses and inconclusive results are not listed.
measurement_type: T/C

Worked cases, T/C given:
* COc1ccc(-c2csc(=[N+]3CCCCC3)s2)cc1 | 101 % of control
* N=C(N)c1ccc(/C=C/c2ccc(C(=N)N)cc2O)cc1 | 96 % of control
* CN1N=C(N)c2cn(C3OC(COP(=O)(O)O)C(O)C3O)c3ncnc1c23 (centres undefined) | 93 % of control

Okay, now this molecule:
Query :: Tell us which T/C value is on record for CNC(=O)c1cccc2c(Nc3ccc(NS(C)(=O)=O)cc3OC)c3cccc(C)c3nc12
Result :: 89 % of control

* * *

- System: BDF1 mice, Lewis lung carcinoma iv, survival T/C
- method_notes: NCI In Vivo Anticancer Drug Screen. Data for tumor model Lewis Lung Carcinoma (intravenous) in B6D2F1 (BDF1) mice
- condition_info: endpoint: median survival time; dose: 6.0 mg/kg/injection; schedule: Q01DX009 (ip); vehicle: Klucel (hydroxypropylcellulose) (HPC)
Inconclusive results and toxic doses are left out. How the source made its calls: active means survival T/C of 150% or more; inactive means T/C below 125% in these data.
// allowed return values: TRUE (active), FALSE (inactive)

Some entries whose results are on file:
* CC(=O)OCC1OC(OC(C)=O)C(NC(=O)N(CCCl)N=O)C(OC(C)=O)C1OC(C)=O (centres undefined) | FALSE
* O=NN(CCCl)C(=O)NCCCl | TRUE
* O=C1C2CC(Cl)C(SSC3CC4C(=O)N(SC(Cl)(Cl)C(Cl)Cl)C(=O)C4CC3Cl)CC2C(=O)N1SC(Cl)(Cl)C(Cl)Cl (centres undefined) | FALSE

Next, consider the following compound.
Query :: Hey, what did the test say about COC1=C(NC(C)=O)C(=O)c2nc(-c3nc(C(=O)O)c(C)c(-c4ccc(OC)c(OC)c4O)c3N)ccc2C1=O ?
Result :: FALSE

* * *

- Tested on: BDF1 mice, Lewis lung carcinoma iv, survival T/C
- method_notes: NCI In Vivo Anticancer Drug Screen. Data for tumor model Lewis Lung Carcinoma (intravenous) in B6D2F1 (BDF1) mice
- condition_info: endpoint: median survival time; dose: 512.0 mg/kg/injection; schedule: Q01DX009 (ip); vehicle: Klucel (hydroxypropylcellulose) (HPC); higher = longer survival
Toxic doses and inconclusive results are not listed.
measurement_type: T/C

• Nc1ncnc2c1ncn2C1OC(CO)C(O)C1O (stereo not given) = 87 % of control
• Cc1c[nH]c(=O)[nH]c1=O = 92 % of control
• O=c1ccn(C2OC(CO)C(O)C2O)c(=O)[nH]1 (stereo not given) = 106 % of control
• Nc1ccnc(=O)[nH]1 = 86 % of control

Okay, now this compound:
Query :: Tell us which T/C value is on record for O=c1cc[nH]c(=O)[nH]1
Result :: 111 % of control

* * *

- Test system: BDF1 mice, Lewis lung carcinoma iv, survival T/C
- method_notes: NCI In Vivo Anticancer Drug Screen. Data for tumor model Lewis Lung Carcinoma (intravenous) in B6D2F1 (BDF1) mice
- condition_info: endpoint: median survival time; dose: 50.0 mg/kg/injection; schedule: Q01DX009 (ip); vehicle: saline with Tween-80; higher = longer survival
Inconclusive results and toxic doses are left out.
For each record, write down the corresponding T/C.

Worked cases, T/C given:
* CC1=CC(=NN=c2cc(C)n([O-])c(C)c2)C=C(C)[N+]1=O | 104 % of control
* CCCCCCCCCCCCCCCCCC1=NC(C)CC(C)(C)O1 (stereo not drawn) | 106 % of control
* Clc1ccc2c(Cl)ncnc2c1 | 107 % of control
* Nc1nc(N)c(N=O)c(Nc2ccc(I)cc2)n1 | 97 % of control

Dear colleague, could you please provide T/C for the compounds listed below?
1. Cc1ccc(Cl)c2ccccc12
2. CC1(C)OC1CS(=O)c1ccccc1 (stereo not drawn)
3. O=C(N/N=C\c1cc(Br)cc(Br)c1O)N/N=C/c1cc(Br)cc(Br)c1O
4. C[C@@H]1CN(C(=O)CCOS(C)(=O)=O)[C@@H](C)CN1C(=O)CCOS(C)(=O)=O
5. O=C(Nc1nncs1)c1cccs1

Result ::
["98 % of control", "91 % of control", "98 % of control", "93 % of control", "92 % of control"]

Dear colleague, could you please provide T/C for the compounds listed below?
1. CCC1OCC(C(Cl)CCl)O1 (stereo not drawn)
2. CNc1cccnc1/C=N/NC(N)=S
3. O=[N+]([O-])c1ccc(Sc2ccncn2)c([N+](=O)[O-])c1
4. O=C1NC(=O)/C(=C/C=C/c2ccccc2)S1

Result ::
1. 94 % of control
2. 102 % of control
3. 95 % of control
4. 101 % of control

* * *

- Tested on: BDF1 mice, Lewis lung carcinoma iv, survival T/C
- method_notes: NCI In Vivo Anticancer Drug Screen. Data for tumor model Lewis Lung Carcinoma (intravenous) in B6D2F1 (BDF1) mice
- condition_info: endpoint: median survival time; dose: 12.5 mg/kg/injection; schedule: Q01DX009 (ip); vehicle: water; higher = longer survival
Inconclusive results and toxic doses are left out.
For each record, write down the corresponding T/C.

Worked cases, T/C given:
• Nc1ncnc2c1ncn2C1OC(COP(=O)(O)O)C(O)C1O (centres undefined) = 104 % of control
• N=C(N)c1ccc(/C=C/c2ccc(C(=N)N)cc2O)cc1 = 101 % of control
• CN1N=C(N)c2cn(C3OC(COP(=O)(O)O)C(O)C3O)c3ncnc1c23 (centres undefined) = 99 % of control
• Nc1nc2c(ncn2C2OC(CO)C(O)C2O)c(=O)[nH]1.Nc1nc2c(ncn2C2OC(CO)C(O)C2O)c(=O)[nH]1.[NH2-].[NH2-].[Pt+2] (centres undefined) = 99 % of control
• COc1cccc2c1C(=O)c1c(O)c3c(c(O)c1C2=O)C[C@@](O)(/C(C)=N\O)C[C@@H]3OC1CC(N)C(O)C(C)O1 (some centres undefined) = 114 % of control
• CC(=O)NC(C=O)OCC=O (centres undefined) = 110 % of control
• COc1ccc(-c2csc(=[N+]3CCCCC3)s2)cc1 = 99 % of control
• COCC(O)Cn1ccnc1[N+](=O)[O-] (centres undefined) = 96 % of control

Okay, now this molecule:
Query :: Tell us which T/C value is on record for CC/C(=C(/CC)c1ccc(O)cc1)c1ccc(O)cc1
Result :: 123 % of control
